# System: surinam grass
# METHOD SUMMARY: Test B pre/postemergence surinam grass
# Assay type: in vivo, Brachiaria decumbens
# STUDY CONDITIONS: Preemergence, Rate 62 g/ha; scale 0 to 10 (0 no effect, 10 complete control)
OBSERVED PROPERTY: Plant response rating, B. signalgrass
Lab note: record just the number, no unit beside it.

>  <MOLECULE>
CC(C)N(C(=O)n1oc(=O)n(CCC#N)c1=O)c1ccc(F)cc1F

>  <Plant response rating, B. signalgrass>
2

$$$$

Inquiry: # get_value(readout='Plant response rating, B. signalgrass', item= CC(C)N(C(=O)n1oc(=O)n(C2CCCCCC2)c1=O)c1ccccc1 )
Reply text: 0

Inquiry: What does the data say about its Plant response rating, B. signalgrass? Entry: C=CC[Si](C)(C)Cn1c(=O)on(C(=O)N(c2ccc(Cl)cc2)C(C)C)c1=O
Reply text: 0

Inquiry: Query (molecule): COCC(C)n1c(=O)on(C(=O)N(c2ccc(F)cc2F)C(C)C)c1=O (stereo not shown) ; field requested: Plant response rating, B. signalgrass
Reply text: 2

Inquiry: Give the measured Plant response rating, B. signalgrass of CSCCn1c(=O)on(C(=O)N(c2ccccc2)C(C)C)c1=O .
Reply text: 0

Inquiry: Bench note: what Plant response rating, B. signalgrass did CC(C)N(C(=O)n1oc(=O)n(C2CCC2)c1=O)c1ccc(F)cc1 show?
Reply text: 0

Inquiry: Could you share which Plant response rating, B. signalgrass value was measured for CCC(CC)n1c(=O)on(C(=O)N(c2ccc(F)cc2F)C(C)C)c1=O ?
Reply text: 0
